ASSAY NOTES: Stability in FaSSiF at pH 6.5 at 37 °C incubated for 4 hrs
READOUT: remaining at 4 h

Qu. # lookup: remaining at 4 h of C[C@@H](CN1C(=O)c2c3c(c(O)c(=O)n2[C@@]12CC[C@H]1C[C@H]12)C(=O)N(Cc1ccc(F)c(Cl)c1)CC3)OP(=O)(O)O
Ans. > 98%

Further cases:
Qu. # lookup: remaining at 4 h of CC(C)OC(=O)OCOc1c2c(c3n(c1=O)[C@@]1(CC[C@H]4C[C@H]41)N(C[C@H](C)O)C3=O)CCN(Cc1ccc(F)c(Cl)c1)C2=O
Ans. > 98%

Qu. # lookup: remaining at 4 h of CC(C)OC(=O)OCOc1c2c(c3n(c1=O)[C@@]1(CC[C@H]4C[C@H]41)N(C[C@H](C)OP(=O)(O)O)C3=O)CCN(Cc1ccc(F)c(Cl)c1)C2=O
Ans. > 98%

Qu. # lookup: remaining at 4 h of CC(C)OC(=O)OCOc1c2c(c3n(c1=O)[C@]1(CC[C@@H]4C[C@@]41CO)N(C)C3=O)CCN(Cc1ccc(F)c(Cl)c1)C2=O
Ans. > 98%

Qu. # lookup: remaining at 4 h of C[C@@H](CN1C(=O)c2c3c(c(O)c(=O)n2[C@@]12CC[C@H]1C[C@H]12)C(=O)N(Cc1ccc(F)c(Cl)c1)CC3)OC(=O)[C@@H](N)CCCCN
Ans. 90%

----------
ASSAY NOTES: Intrinsic clearance in human hepatocytes at 1 uM by LC-MS/MS method
Type: ADME, cell-based, Hepatocyte
SETUP CONDITIONS: read-out: CLH
READOUT: CLint scaled at 1 µM

Qu. # lookup: CLint scaled at 1 µM of CC(C)n1c(C(=O)N(C)C)c2c(c(O)c1=O)C(=O)N(Cc1ccc(F)c(Cl)c1)CC2
Ans. < 20 mL/min/kg

----------
ASSAY NOTES: Plasma clearance in rat
Format: ADME, organism-based
READOUT: clearance
Please state the number and follow it with the unit.

Qu. # lookup: clearance of CC(C)n1c(C(=O)N(C)C)c2c(c(O)c1=O)C(=O)N(Cc1ccc(F)c(Cl)c1)CC2
Ans. 2.3 mL/min/kg

----------
ASSAY NOTES: Plasma clearance in dog
Type: ADME, organism-based, Canis lupus familiaris
READOUT: clearance

Qu. # lookup: clearance of CC(C)n1c(C(=O)N(C)C)c2c(c(O)c1=O)C(=O)N(Cc1ccc(F)c(Cl)c1)CC2
Ans. 2.2 mL/min/kg

----------
Each record here notes measured Papp at 3 h, 1 µM.
ASSAY NOTES: Permeability in LLC-PK1 cells at 1 uM incubated for 3 hrs by LC-MS/MS method
Format: ADME, cell-based, Sus scrofa
SETUP CONDITIONS: pig, read-out: permeability
A number alone suffices; assume ×10⁻⁶ cm/s.

Here's what some known entries look like.
Qu. # lookup: Papp at 3 h, 1 µM of CC(C)OC(=O)OCOc1c2c(c3n(c1=O)[C@@]1(CC[C@H]4C[C@H]41)N(C[C@H](C)O)C3=O)CCN(Cc1ccc(F)c(Cl)c1)C2=O
Ans. 26.7

Qu. # lookup: Papp at 3 h, 1 µM of CN1C(=O)c2c3c(c(O)c(=O)n2[C@]12CC[C@@H]1C[C@@]12CO)C(=O)N(Cc1ccc(F)c(Cl)c1)CC3
Ans. 6.7

Qu. # lookup: Papp at 3 h, 1 µM of C[C@H](O)CN1C(=O)c2c3c(c(O)c(=O)n2[C@@]12CC[C@H]1C[C@H]12)C(=O)N(Cc1ccc(F)c(Cl)c1)CC3
Ans. 14.8

# context switch: different compound, same Papp at 3 h, 1 µM
Qu. # lookup: Papp at 3 h, 1 µM of CC(C)OC(=O)OCOc1c2c(c3n(c1=O)[C@]1(CC[C@@H]4C[C@@]41CO)N(C)C3=O)CCN(Cc1ccc(F)c(Cl)c1)C2=O
Ans. 26.5
